Target: Neu5Ac(a2-3)Gal(b1-4)GlcNAc(b1-3)GalNAc
Assay: glycan array binding signal (z-score within array); higher = stronger binding
Details: glycan notation: IUPAC condensed, linker removed
This is one part of a sample in which the strongest signals are shown more often than they occur.
assay.readout: glycan array binding signal (z-score)
Enter a number only.

| binder | assay.readout | quantitative.readout |
| --- | --- | --- |
| ArathEULS3 (Arabidopsis thaliana), Q945P1 (protein) MEHHHQHHRHHQRDDGEDDRQSFGVPPPHVDAPPQPHGLYQSQPHFDPYAPTPQAPAPYRSETQFEPHAPPPYRSEPYFETPAPPPSFGHVSHVGHQSPNESYPPEHHRYGGYQQPSNSLLESHGDHSGVTHVAHHSSNQPQSSSGVYHKPDENRLPDNLAGLAGRATVKVYSKAEPNYNLTIRDGKVILAPADPSDEAQHWYKDEKYSTKVKDADGHPCFALVNKATGEAMKHSVGATHPVHLIRYVPDKLDESVLWTESKDFGDGYRTIRMVNNTRLNVDAYHGDSKSGGVRDGTTIVLWDWNKGDNQLWKIFPFILEQKLISEEDLNSAVDHHHHHH | glycan array binding signal (z-score) | -0.326 |

Moving on to another binder below.
[Q] // lookup glycan array binding signal (z-score) for Gal 9 (Homo sapiens), O00182 (protein) MAFSGSQAPYLSPAVPFSGTIQGGLQDGLQITVNGTVLSSSGTRFAVNFQTGFSGNDIAFHFNPRFEDGGYVVCNTRQNGSWGPEERKTHMPFQKGMPFDLCFLVQSSDFKVMVNGILFVQYFHRVPFHRVDTISVNGSVQLSYISFQNPRTVPVQPAFSTVPFSQPVCFPPRPRGRRQKPPGVWPANPAPITQTVIHTVQSAPGQMFSTPAIPPMMYPHPAYPMPFITTILGGLYPSKSILLSGTVLPSAQRFHINLCSGNHIAFHLNPRFDENAVVRNTQIDNSWGSEERSLPRKMPFVRGQSFSVWILCEAHCLKVAVDGQHLFEYYHRLRNLPTINRLEVGGDIQLTHVQT
[A] -0.265
